MEASURED ON: T1, HLA-DR4 molecules (HLA-DRB1*0401), purified, detergent-solubilized (human)
T1 construct: mature; The text says HLA-DR4
PROTOCOL SUMMARY: in vitro competition binding assay: purified HLA-DR4, biotinylated HA(307-319) reporter, synthetic competitor peptide

| BINDER | binding result |
| --- | --- |
| GPHDVHVQIETSPPARN (Synthetic peptide in the in vitro assay) [Fig1 (293-309)] | binds |
| ETMKMRYEHIDHTFEIQ (Found as eluted natural peptide and tested as synthetic peptide) [CYRB (359-375)] | binds |
| GPNNYYSFASQQQKPE (Found as eluted natural peptide and tested as synthetic peptide) [PSMD8 (218-233)] | binds |
| GDRGMQLMHANAQR (Found as eluted natural peptide and tested as synthetic peptide; also called Interferon-gamma-inducible lysosomal thiol reductase (192-205)) [GILT (192-205)] | binds |
| TPHGIILDSVDAAFI (Synthetic peptide in the in vitro assay; also called Hemopexin (351-365)) [HPX (351-365)] | binds |
| EKLWFVPAKVEDSGHY (Found as eluted natural peptide and tested as synthetic peptide; also called Interleukin-1 receptor (79-94)) [IL-1R (79-94)] | binds |
| NVVFVIDKSGSMSG (Synthetic peptide in the in vitro assay) [ITIH4 (274-287)] | binds |
| GSREIKSQQSEVTR (Synthetic peptide in the in vitro assay) [SH3BGRL3 (13-26)] | binds |
